# System: HeLa Kyoto;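 also: synchronized HeLa Kyoto cells, proteins quantified by TMT10plex mass spectrometry, three biological replicates, mitosis taken 0.5 h after nocodazole release, G1/S directly after double thymidine block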
# protocol text: thermal stability score vs G1/S (z-score of summed log2 fold changes over temperatures); higher = more thermally stable than in G1/S
# measurement setup: cell cycle stage: mitosis
If the reported thermal stability score equals or exceeds -1, assign 1 (yes). If not, assign 0 (no).

# ordered residues, system tested, assigned class
rows = [
    ("MDRSAEFRKWKAQCLSKADLSRKGSVDEDVVELVQFLNMRDQFFTTSSCAGRILLLDRGINGFEVQKQNCCWLLVTHKLCVKDDVIVALKKANGDATLKFEPFVLHVQCRQLQDAQILHSMAIDSGFRNSGITVGKRGKTMLAVRSTHGLEVPLSHKGKLMVTEEYIDFLLNVANQKMEENKKRIERFYNCLQHALERETMTNLHPKIKEKNNSSYIHKKKRNPEKTRAQCITKESDEELENDDDDDLGINVTIFPEDY [TYW3]", "HeLa Kyoto", "0 (no)"),
]

Q. // inclusive: thermal stability score at least -1? input: MAYHSGYGAHGSKHRARAAPDPPPLFDDTSGGYSSQPGGYPATGADVAFSVNHLLGDPMANVAMAYGSSIASHGKDMVHKELHRFVSVSKLKYFFAVDTAYVAKKLGLLVFPYTHQNWEVQYSRDAPLPPRQDLNAPDLYIPTMAFITYVLLAGMALGIQKRFSPEVLGLCASTALVWVVMEVLALLLGLYLATVRSDLSTFHLLAYSGYKYVGMILSVLTGLLFGSDGYYVALAWTSSALMYFIVRSLRTAALGPDSMGGPVPRQRLQLYLTLGAAAFQPLIIYWLTFHLVR [YIF1A]
A. 0 (no)

Q. // inclusive: thermal stability score at least -1? input: MDIRPNHTIYINNMNDKIKKEELKRSLYALFSQFGHVVDIVALKTMKMRGQAFVIFKELGSSTNALRQLQGFPFYGKPMRIQYAKTDSDIISKMRGTFADKEKKKEKKKAKTVEQTATTTNKKPGQGTPNSANTQGNSTPNPQVPDYPPNYILFLNNLPEETNEMMLSMLFNQFPGFKEVRLVPGRHDIAFVEFENDGQAGAARDALQGFKITPSHAMKITYAKK [SNRPB2]
A. 0 (no)

Q. // inclusive: thermal stability score at least -1? input: MAVELGVLLVRPRPGTGLGRVMRTLLLVLWLATRGSALYFHIGETEKKCFIEEIPDETMVIGNYRTQLYDKQREEYQPATPGLGMFVEVKDPEDKVILARQYGSEGRFTFTSHTPGEHQICLHSNSTKFSLFAGGMLRVHLDIQVGEHANDYAEIAAKDKLSELQLRVRQLVEQVEQIQKEQNYQRWREERFRQTSESTNQRVLWWSILQTLILVAIGVWQMRHLKSFFEAKKLV [TMED9]
A. 1 (yes)

Q. // inclusive: thermal stability score at least -1? input: MAPKGSSKQQSEEDLLLQDFSRNLSAKSSALFFGNAFIVSAIPIWLYWRIWHMDLIQSAVLYSVMTLVSTYLVAFAYKNVKFVLKHKVAQKREDAVSKEVTRKLSEADNRKMSRKEKDERILWKKNEVADYEATTFSIFYNNTLFLVVVIVASFFILKNFNPTVNYILSISASSGLIALLSTGSK [SSR3]
A. 1 (yes)

Q. // inclusive: thermal stability score at least -1? input: MVVFGYEAGTKPRDSGVVPVGTEEAPKVFKMAASMHGQPSPSLEDAKLRRPMVIEIIEKNFDYLRKEMTQNIYQMATFGTTAGFSGIFSNFLFRRCFKVKHDALKTYASLATLPFLSTVVTDKLFVIDALYSDNISKENCVFRSSLIGIVCGVFYPSSLAFTKNGRLATKYHTVPLPPKGRVLIHWMTLCQTQMKLMAIPLVFQIMFGILNGLYHYAVFEETLEKTIHEE [TMEM126B]
A. 0 (no)

Q. // inclusive: thermal stability score at least -1? input: MAEGNTLISVDYEIFGKVQGVFFRKHTQAEGKKLGLVGWVQNTDRGTVQGQLQGPISKVRHMQEWLETRGSPKSHIDKANFNNEKVILKLDYSDFQIVK [ACYP1]
A. 0 (no)

Data origin: the supplement of paper PMC5998384
